# System: OVCAR-3 ovarian
# TEST PROTOCOL: NCI tumour cell line growth inhibition, 48 h
Below: a set of entries, each annotated with reported TGI.

Worked examples, 3 compounds total:
{"COMPOUND": "O=C(OC(=C(c1ccccc1)c1ccccc1)N1CCCC1=S)C(c1ccccc1)c1ccccc1", "TARGET OR SYSTEM": "OVCAR-3 ovarian", "RESULT": "> 10 µM"}
{"COMPOUND": "COc1ccc(-c2ccc(C3CC(c4ccc(Cl)cc4)=NN3)o2)c([N+](=O)[O-])c1 (stereo not drawn)", "TARGET OR SYSTEM": "OVCAR-3 ovarian", "RESULT": "> 100 µM"}
{"COMPOUND": "COC(=O)C(Cc1ccccc1)OC(=O)C(N)CC(=O)O (stereo not drawn)", "TARGET OR SYSTEM": "OVCAR-3 ovarian", "RESULT": "> 100 µM"}

// assay OVCAR-3 ovarian, entry "Cc1nc(NC(=O)CCCN2C(=O)c3cccc4cccc(c34)C2=O)sc1C(=O)Nc1cc(C(=O)NCCCN(C)C)n(C)c1" , TGI value = > 100 µM

The compound "CCOC(=O)c1cn(Cc2ccccc2)c(=O)n1Cc1ccccc1" , when measured on OVCAR-3 ovarian, yielded TGI of > 100 µM

Here "O=[N+]([O-])c1nccn1COCCF" was tested on OVCAR-3 ovarian, and its TGI came to > 100 µM

Note to self: TGI of NC(=S)N/N=C1/C(=O)N(c2ccc(Cl)cc2Cl)C(=O)C(=O)C1c1nc2ccccc2s1 (stereo not drawn) with OVCAR-3 ovarian was > 100 µM

GET /values?item= "Cn1c(-c2ccc(/C=N\N3CCN(/N=C/c4ccc(-c5c[n+]6ccsc6n5C)cc4)CC3)cc2)c[n+]2ccsc12" &system= OVCAR-3 ovarian returns TGI: > 100 µM

Entry "COC(=O)CCn1cnc2c(SC)ncnc21" ; assay system OVCAR-3 ovarian; TGI recorded at > 100 µM

"CCOC(=O)c1sc(Nc2ccc(Cl)cc2)nc1C" tested on OVCAR-3 ovarian gave TGI: 3.92 µM

The observed TGI for "Clc1c(Cl)c2c(Cl)c(Cl)c1C[P+](c1ccccc1)(c1ccccc1)CC[P+](c1ccccc1)(c1ccccc1)Cc1c(Cl)c(Cl)c(c(Cl)c1Cl)C[P+](c1ccccc1)(c1ccccc1)CC[P+](c1ccccc1)(c1ccccc1)C2" when tested with OVCAR-3 ovarian stands at 8.97 µM

Value (TGI, OVCAR-3 ovarian) for record O=C(NC1=NC2C=CC([N+](=O)[O-])=CC2S1)C(=O)Nn1c(=S)[nH]c2ccccc2c1=O (stereo not drawn) = > 100 µM

----------
# Test system: A498 renal
# TEST PROTOCOL: NCI tumour cell line growth inhibition, 48 h
Listed compounds paired with reported TGI

Consider the worked cases shown below.
{"COMPOUND": "Nc1ncnc2c1ncn2C1OC(CO)=CC1O (stereo not drawn)", "TGI": "> 37.5 µM"}
{"COMPOUND": "CCOC(=O)c1cn(Cc2ccccc2)c(=O)n1Cc1ccccc1", "TGI": "> 100 µM"}

Noted for COc1ccc(-c2ccc(C3CC(c4ccc(Cl)cc4)=NN3)o2)c([N+](=O)[O-])c1 (stereo not drawn) : its TGI reads > 100 µM

----------
# System: HT29 colon
# TEST PROTOCOL: NCI tumour cell line growth inhibition, 48 h
PROPERTY NAME: TGI

{"COMPOUND": "O=C(CCCl)NNC1=NCCN1", "PROPERTY NAME": "TGI", "RESULT": "> 100 µM"}
{"COMPOUND": "O=S(CCCl)c1c2ccccc2nc2ccccc12 (stereo not drawn)", "PROPERTY NAME": "TGI", "RESULT": "> 100 µM"}
{"COMPOUND": "c1cncc(-c2ncc3cccnc3n2)c1", "PROPERTY NAME": "TGI", "RESULT": "> 100 µM"}

Field TGI (system: HT29 colon) for entry "N/N=C1\CCCc2c1no[n+]2[O-]" = > 100 µM

Let me check: "O=c1ccn2n1CCCCC2" , system HT29 colon, measured TGI is > 100 µM

Param item: "COc1ccc(O)c(C=NCCCN=Cc2cc(OC)ccc2O)c1" ; param system: HT29 colon; output TGI: > 100 µM

The compound "CCOP(=O)(OCC)/C(C#N)=C/c1cccn1CC(C)C" , tested on HT29 colon, showed TGI of > 100 µM

Form: item "NCCNC(=S)S" ; test system HT29 colon; TGI: > 100 µM
